Dear all, this message contains pKi results, target or system Adenosine receptor A1 (Homo sapiens, UniProt P30542).
pKi: −log10 of the molar value.
PROPERTY: pKi

- SUBSTANCE_SMILES: "CNC(=O)[C@H]1O[C@@H](n2cnc3c(NC)ncnc32)[C@H](O)[C@@H]1O"
  pKi: 7.19

A: CNC(=O)[C@H]1O[C@@H](n2cnc3c(NCc4cc(Cl)ccc4OCc4cc(C)no4)ncnc32)[C@H](O)[C@@H]1O
B: CNC(=O)[C@H]1O[C@@H](n2cnc3c(NCc4cccc(I)c4)ncnc32)[C@H](O)[C@@H]1N
Prompt: Dear colleague, could you let me know whether A or B has the lower recorded pKi? Thanks. Refer to your chosen item by its label in the answer.
Completion: B
(B: 5.34, A: 7.17)
